# Test system: Ambystoma mexicanum
# Experimental Protocol: Toxicity in axolotl at <=10 uM by embryo tail regeneration assay
# Format: organism-based
# Test Context: in vivo

# Compound, Activity
measured = [
    ("O=C(O)C1(O)O[C@@H]2[C@@H](Cc3nc4c(O)cccc4nc3[C@@H]2O)[C@H]1c1ccc(O)cc1 (some centres not stated)", "Non-Toxic"),
    ("NC(=O)c1cccc2nc3c4c(ccc3nc12)[C@H]1c2nc3c(O)cccc3nc2C[C@@H]4[C@@H]1O", "Non-Toxic"),
    ("O=C(O)c1cccc2nc3c4c(ccc3nc12)[C@H]1c2nc3c(O)cccc3nc2C[C@@H]4[C@H]1O", "Non-Toxic"),
    ("O=C(O)C1(O)O[C@@H]2[C@@H](Cc3nc4c(O)cccc4nc3[C@H]2O)[C@H]1c1c[nH]c2ccccc12 (some centres not stated)", "Non-Toxic"),
    ("O=C(O)C1(O)O[C@@H]2[C@@H](Cc3nc4c(O)cccc4nc3[C@@H]2O)[C@H]1c1c[nH]c2ccccc12 (some centres not stated)", "Non-Toxic"),
    ("O=C(O)c1ccc(O)c2nc3c4c(ccc3nc12)[C@@H]1Cc2nc3cccc(O)c3nc2[C@H](O4)[C@H]1O", "Non-Toxic"),
    ("O=C(O)c1cc2c(c3nc4cccc(O)c4nc13)[C@@H]1Cc3nc4cccc(O)c4nc3[C@@](O)(C1)O2", "Non-Toxic"),
]

Where do these numbers come from? They come from ChEMBL document CHEMBL4392871.
